- Measurement Description: Cytotoxicity against human A549 cells assessed as reduction in cell viability by MTT assay
- Assay type: cell-based
Readings of CC50 for the listed molecules

Consider the worked cases shown below.
>>> assay_result("C[C@H]1[C@H](C)CC[C@]2(C(=O)O)CC[C@]3(C)C(=CC[C@@H]4[C@@]5(C)CC[C@H](O[C@@H]6O[C@H](CO)[C@@H](O[C@@H]7O[C@@H](C)[C@H](O)[C@@H](O)[C@H]7O)[C@H](O)[C@H]6O[C@@H]6O[C@@H](C)[C@H](O)[C@@H](O)[C@H]6O)C(C)(C)[C@@H]5CC[C@]43C)[C@H]12")
"66.6 µM"
>>> assay_result("CCOC(=O)C1=C[C@@H](OC(CC)CC)[C@H](NC(C)=O)[C@@H](N)C1 [OSELTAMIVIR]")
"> 200 µM"
>>> assay_result("C[C@H]1[C@H](C)CC[C@]2(C(=O)NCCN3CCOCC3)CC[C@]3(C)C(=CC[C@@H]4[C@@]5(C)CC[C@H](O[C@@H]6O[C@H](CO)[C@@H](O[C@@H]7O[C@@H](C)[C@H](O)[C@@H](O)[C@H]7O)[C@H](O)[C@H]6O[C@@H]6O[C@@H](C)[C@H](O)[C@@H](O)[C@H]6O)C(C)(C)[C@@H]5CC[C@]43C)[C@H]12")
"> 200 µM"

Read the next record carefully.
Entry under test: C[C@H]1[C@H](C)CC[C@]2(C(=O)NCCN3CCCCC3)CC[C@]3(C)C(=CC[C@@H]4[C@@]5(C)CC[C@H](O[C@@H]6O[C@H](CO)[C@@H](O[C@@H]7O[C@@H](C)[C@H](O)[C@@H](O)[C@H]7O)[C@H](O)[C@H]6O[C@@H]6O[C@@H](C)[C@H](O)[C@@H](O)[C@H]6O)C(C)(C)[C@@H]5CC[C@]43C)[C@H]12 . Its CC50 was > 200 µM
